# protocol.details: RP, Waters ACQUITY UPLC BEH C18, 100 × 1 mm, 1.7 µm, 50 °C, 0.3 mL/min, estimated dead time 0.17 min; A: water + 10 mM ammonium bicarbonate; B: 10% water + 90% methanol + 10 mM ammonium bicarbonate; gradient (min/%B) 0/0 15/100 21/100 22/0 30/0
# study.conditions: stereoisomer not certain
Measured LC retention time accompanies every entry in the list below.
Your answer should be a number followed by the unit of measure.

As a guide, the following entries are already answered.
OC1C=C2CCN3Cc4cc5c(cc4C(C1O)C23)OCO5 (centres undefined) = 9.11 min
Cc1ccc(NC=O)c(C)c1 [2,4-Dimethylformanilide] = 11.2 min
N=c1nc(N)c(-c2cccc(Cl)c2Cl)nn1O = 9.15 min
CN(C)c1ccncc1 = 7.04 min

# input So what's the measured LC retention time for this one? "Clc1ccccc1C(c1ccccc1)(c1ccccc1)n1ccnc1"
# output 16.7 min

# input So what's the measured LC retention time for this one? CC(C)NCC(O)c1ccc(NS(C)(=O)=O)cc1 (centres undefined)
# output 7.74 min

# input So what's the measured LC retention time for this one? "CC(C)N(C(=O)C(=O)O)c1ccccc1"
# output 11.3 min

# input So what's the measured LC retention time for this one? "CNC(=O)Oc1cccc2c1OC(C)(C)C2"
# output 12 min

# input So what's the measured LC retention time for this one? "c1ccc2sc(N3CCOCC3)nc2c1"
# output 13.2 min
